# testSystem: Amine oxidase [flavin-containing] A (Homo sapiens)
# Sequence (P21397 whole entry): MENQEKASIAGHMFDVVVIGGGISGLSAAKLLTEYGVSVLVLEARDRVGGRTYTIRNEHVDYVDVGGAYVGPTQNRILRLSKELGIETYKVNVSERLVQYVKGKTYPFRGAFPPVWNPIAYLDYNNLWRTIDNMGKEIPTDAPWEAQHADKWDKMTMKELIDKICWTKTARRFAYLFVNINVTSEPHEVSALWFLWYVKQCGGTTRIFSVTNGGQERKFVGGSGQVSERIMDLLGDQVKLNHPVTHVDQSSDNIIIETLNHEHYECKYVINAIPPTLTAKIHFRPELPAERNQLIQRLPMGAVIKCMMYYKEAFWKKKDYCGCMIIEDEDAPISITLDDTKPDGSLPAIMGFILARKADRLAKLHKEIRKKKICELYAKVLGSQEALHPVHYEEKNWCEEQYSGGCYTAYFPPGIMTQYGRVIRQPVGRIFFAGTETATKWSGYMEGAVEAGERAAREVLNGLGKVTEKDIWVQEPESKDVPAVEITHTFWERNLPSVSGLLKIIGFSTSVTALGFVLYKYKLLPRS
# methodNotes: Inhibition of MAO-A (unknown origin)
pIC50: −log10 of the molar value.

itemSmiles: C[C@@H]1O[C@@H](Oc2c(-c3ccc(O)c(O)c3)oc3cc(O)cc(O)c3c2=O)[C@H](O)[C@H](O)[C@H]1O
pIC50: 4.74

---

# testSystem: Amine oxidase [flavin-containing] A (Homo sapiens)
# methodNotes: Inhibition of human recombinant MAO-A
Parameter IC50: see the listing below.

itemSmiles: CC(=O)Nc1ccc2c(O)c3ccccc3nc2c1
testSystem: Amine oxidase [flavin-containing] A (Homo sapiens)
unitAbbrev: nM
IC50: 10

itemSmiles: CC(=O)Nc1ccc2c(c1)S(=O)(=O)c1cc(C)ccc1C2=O
testSystem: Amine oxidase [flavin-containing] A (Homo sapiens)
unitAbbrev: nM
IC50: 10

itemSmiles: CC(=O)Nc1cc2c(cc1NC(C)=O)S(=O)(=O)c1ccccc1C2
testSystem: Amine oxidase [flavin-containing] A (Homo sapiens)
unitAbbrev: nM
IC50: 10
